Target: human 5HT2c receptor (Homo sapiens)
Sequence (P28335 33-458): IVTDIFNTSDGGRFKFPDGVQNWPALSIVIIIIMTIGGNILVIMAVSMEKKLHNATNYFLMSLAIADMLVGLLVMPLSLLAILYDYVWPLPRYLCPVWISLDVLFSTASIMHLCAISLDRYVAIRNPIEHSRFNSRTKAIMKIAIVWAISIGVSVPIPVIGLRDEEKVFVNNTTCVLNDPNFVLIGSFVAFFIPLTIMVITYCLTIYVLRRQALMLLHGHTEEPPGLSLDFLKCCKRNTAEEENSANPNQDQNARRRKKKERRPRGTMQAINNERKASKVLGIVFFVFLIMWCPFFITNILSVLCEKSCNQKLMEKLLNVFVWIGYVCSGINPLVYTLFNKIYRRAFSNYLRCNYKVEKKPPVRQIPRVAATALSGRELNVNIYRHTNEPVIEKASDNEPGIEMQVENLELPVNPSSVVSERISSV
pKi: −log10 of the molar value. Counter-ions that a name gives are not always drawn.

MOLECULE	MEASURED_TARGET	pKi
c1ccc(COc2cncc(N3CCNCC3)n2)nc1 [Example 1-AW, hydrochloride salt]	human 5HT2c receptor (Homo sapiens)	6.23
